Molecular target: CYP2C8 (Homo sapiens)
Sequence (P10632 whole entry): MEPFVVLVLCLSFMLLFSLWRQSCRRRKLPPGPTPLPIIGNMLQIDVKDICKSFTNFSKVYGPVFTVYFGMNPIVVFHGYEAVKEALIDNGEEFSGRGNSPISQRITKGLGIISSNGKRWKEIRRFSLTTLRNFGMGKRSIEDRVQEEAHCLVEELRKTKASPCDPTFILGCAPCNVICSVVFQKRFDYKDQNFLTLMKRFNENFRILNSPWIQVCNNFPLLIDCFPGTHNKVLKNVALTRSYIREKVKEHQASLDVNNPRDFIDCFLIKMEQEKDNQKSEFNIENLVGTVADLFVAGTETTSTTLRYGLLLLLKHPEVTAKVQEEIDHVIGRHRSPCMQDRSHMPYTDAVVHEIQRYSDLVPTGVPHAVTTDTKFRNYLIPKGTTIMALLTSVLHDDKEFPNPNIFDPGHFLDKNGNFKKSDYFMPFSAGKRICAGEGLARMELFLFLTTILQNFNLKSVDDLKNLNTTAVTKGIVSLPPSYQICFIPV
Assay: Clinical drug-drug interaction study in healthy volunteers: effect of relacorilant on plasma pioglitazone (CYP2C8 substrate)
Conditions: human, plasma, po, 15 mg
reported-metric: AUC(0-inf) (ng·h/mL)
Note: unit ng·h/mL is implicit; provide only the numeric part.

Field AUC(0-inf) (entry CCc1ccc(CCOc2ccc(CC3SC(=O)NC3=O)cc2)nc1 (stereo not shown) ) reads 5410

----------
Target: CYP3A4 (Homo sapiens, UniProt P08684)
Sequence (P08684 whole entry): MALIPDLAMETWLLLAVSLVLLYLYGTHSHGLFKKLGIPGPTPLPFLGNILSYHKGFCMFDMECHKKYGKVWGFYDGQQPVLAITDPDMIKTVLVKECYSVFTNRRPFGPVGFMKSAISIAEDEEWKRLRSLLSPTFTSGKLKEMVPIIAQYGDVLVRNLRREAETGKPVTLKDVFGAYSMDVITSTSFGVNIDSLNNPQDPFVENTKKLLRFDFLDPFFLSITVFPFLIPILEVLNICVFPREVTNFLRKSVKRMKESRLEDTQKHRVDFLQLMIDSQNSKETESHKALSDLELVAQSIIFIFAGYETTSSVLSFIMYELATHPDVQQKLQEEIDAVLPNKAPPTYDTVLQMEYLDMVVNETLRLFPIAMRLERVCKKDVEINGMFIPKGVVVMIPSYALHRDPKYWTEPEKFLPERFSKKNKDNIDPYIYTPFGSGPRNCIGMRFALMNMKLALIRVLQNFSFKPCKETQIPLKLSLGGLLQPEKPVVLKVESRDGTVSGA
Assay: clinical
Conditions: in vivo, po, 2.5 mg
reported-metric: Cmax (ng/mL)
Note: unit ng/mL is implicit; provide only the numeric part.

Let me check: Cc1ncc2n1-c1ccc(Cl)cc1C(c1ccccc1F)=NC2 , system CYP3A4 (Homo sapiens, UniProt P08684), measured Cmax is 11.8

----------
Target: CYP2C8 (Homo sapiens)
Assay: Clinical drug-drug interaction study in healthy volunteers: effect of relacorilant on plasma pioglitazone (CYP2C8 substrate)
Conditions: human, plasma, po, 15 mg
reported-metric: Cmax (ng/mL)
Note: unit ng/mL is implicit; provide only the numeric part.

Let me check: CCc1ccc(CCOc2ccc(CC3SC(=O)NC3=O)cc2)nc1 (stereo not shown) , system CYP2C8 (Homo sapiens), measured Cmax is 484

----------
Biological target: CYP2C8 (Homo sapiens)
Assay: Clinical drug-drug interaction study in healthy volunteers: effect of relacorilant on plasma pioglitazone (CYP2C8 substrate)
Settings: human, plasma, po, 15 mg
reported-metric: AUC(0-t) (ng·h/mL)
Note: unit ng·h/mL is implicit; provide only the numeric part.

Field AUC(0-t) (entry CCc1ccc(CCOc2ccc(CC3SC(=O)NC3=O)cc2)nc1 (stereo not shown) [Pioglitazone, pioglitazone] ) reads 5290

----------
Target: CYP3A4 (Homo sapiens)
reported-metric: IC50 (nM)
Note: unit nM is implicit; provide only the numeric part.

Field IC50 (entry Cn1cc(S(=O)(=O)N2CCC3=Cc4c(cnn4-c4ccc(F)cc4)C[C@]3(C(=O)c3cc(C(F)(F)F)ccn3)C2)cn1 [relacorilant] ) reads 1320

----------
Target: CYP3A4 (Homo sapiens, UniProt P08684)
Assay: clinical
Conditions: in vivo, po, 2.5 mg
reported-metric: AUC(0-t) (ng·h/mL)
Note: unit ng·h/mL is implicit; provide only the numeric part.

Let me check: Cc1ncc2n1-c1ccc(Cl)cc1C(c1ccccc1F)=NC2 [Midazolam, midazolam] , system CYP3A4 (Homo sapiens, UniProt P08684), measured AUC(0-t) is 30.9
